Listed below: ID/g values for each entry.
system: Rattus norvegicus; assay: Biodistribution in fat of immature female rat after 1 hr administration of 3 micro Ci (111 kBq) in the presence of (+E2); assay type: ADME, organism-based, Adipose tissue; settings: in vivo
property name: ID/g

CO[C@H]1C[C@@]2(C)[C@@H](CC[C@@]2(O)/C=C/I)[C@@H]2CCc3cc(O)c(F)cc3[C@H]21; 4.31%
C[C@@H]1Cc2cc(O)c(F)cc2[C@H]2CC[C@@]3(C)[C@@H](CC[C@@]3(O)/C=C/I)[C@H]12; 1.48%
C[C@]12CC[C@@H]3c4ccc(O)c(F)c4CC[C@H]3[C@@H]1CC[C@@]2(O)/C=C\I; 3.41%

====

tested on: Rattus norvegicus; experiment: Biodistribution in liver of immature female rat after 12 hour administration of 3 micro Ci (111 kBq) in the absence of 60 microg estradiol; assay type: ADME, organism-based; settings: in vivo
property name: ID/g (%)

CO[C@H]1C[C@@]2(C)[C@@H](CC[C@@]2(O)/C=C/I)[C@@H]2CCc3cc(O)c(F)cc3[C@H]21; 1.48
C[C@]12CC[C@@H]3c4ccc(O)c(F)c4CC[C@H]3[C@@H]1CC[C@@]2(O)/C=C/I; 0.59
C[C@@H]1Cc2cc(O)c(F)cc2[C@H]2CC[C@@]3(C)[C@@H](CC[C@@]3(O)/C=C/I)[C@H]12; 1
C[C@@H]1Cc2c(ccc(O)c2F)[C@H]2CC[C@@]3(C)[C@@H](CC[C@@]3(O)/C=C\I)[C@H]12; 0.8
C[C@@H]1Cc2cc(O)c(F)cc2[C@H]2CC[C@@]3(C)[C@@H](CC[C@@]3(O)/C=C\I)[C@H]12; 1.69
C[C@@H]1Cc2c(ccc(O)c2F)[C@H]2CC[C@@]3(C)[C@@H](CC[C@@]3(O)/C=C/I)[C@H]12; 1.57
C[C@]12CC[C@@H]3c4ccc(O)c(F)c4CC[C@H]3[C@@H]1CC[C@@]2(O)/C=C\I; 1.78
CO[C@H]1C[C@@]2(C)[C@@H](CC[C@@]2(O)/C=C\I)[C@@H]2CCc3c(ccc(O)c3F)[C@H]21; 0.83
C[C@]12CC[C@@H]3c4cc(F)c(O)cc4CC[C@H]3[C@@H]1CC[C@@]2(O)/C=C/I; 1.58
C[C@]12CC[C@@H]3c4cc(F)c(O)cc4CC[C@H]3[C@@H]1CC[C@@]2(O)/C=C\I; 0.81

====

Listed below: ID/g values for each entry.
system: Rattus norvegicus; assay: Biodistribution in lungs of immature female rat after 5 hour administration of 3 micro Ci (111 kBq) in the absence of 60 microg estradiol; format: ADME, organism-based, Lung; details: in vivo
property name: ID/g (%)

C[C@]12CC[C@@H]3c4cc(F)c(O)cc4CC[C@H]3[C@@H]1CC[C@@]2(O)/C=C\I; 0.24
CO[C@H]1C[C@@]2(C)[C@@H](CC[C@@]2(O)/C=C\I)[C@@H]2CCc3c(ccc(O)c3F)[C@H]21; 0.51
C[C@@H]1Cc2cc(O)c(F)cc2[C@H]2CC[C@@]3(C)[C@@H](CC[C@@]3(O)/C=C/I)[C@H]12; 0.22
C[C@]12CC[C@@H]3c4ccc(O)c(F)c4CC[C@H]3[C@@H]1CC[C@@]2(O)/C=C\I; 0.56
